TARGET DESC: CYP2C19 (Homo sapiens, UniProt P33261)
Construct: Pooled human microsomes and selective CYP probe substrates were used; from tissue; host or cells: pooled human liver microsomes
Sequence (P33261 whole entry): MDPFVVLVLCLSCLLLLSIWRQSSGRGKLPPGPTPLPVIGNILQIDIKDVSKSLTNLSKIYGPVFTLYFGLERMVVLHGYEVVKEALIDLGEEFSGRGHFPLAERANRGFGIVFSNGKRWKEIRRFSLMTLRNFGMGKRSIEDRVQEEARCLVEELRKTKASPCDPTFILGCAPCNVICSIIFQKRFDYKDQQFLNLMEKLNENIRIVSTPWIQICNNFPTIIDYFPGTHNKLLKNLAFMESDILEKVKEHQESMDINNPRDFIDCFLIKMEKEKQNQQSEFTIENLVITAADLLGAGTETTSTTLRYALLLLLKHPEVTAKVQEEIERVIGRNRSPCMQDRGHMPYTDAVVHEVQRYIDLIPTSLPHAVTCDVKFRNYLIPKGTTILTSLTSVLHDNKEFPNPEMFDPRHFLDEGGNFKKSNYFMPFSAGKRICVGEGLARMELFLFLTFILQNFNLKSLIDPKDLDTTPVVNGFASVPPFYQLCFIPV
EXPERIMENTAL PROTOCOL: Time-dependent inhibition of CYP2C19 in human liver microsomes
Assay type: in vitro ADME
CONDITION INFO: pooled human liver microsomes; CYP2C19, 25 μM, human liver microsomes, time zero; read-out: % Activity NADPH T0
READOUT: activity at 0 min, 25 µM

# SMI, READOUT, RESULT
rows = [
    ("Cc1cc(CN2C(=O)CN([C@H]3CC[C@H](C)CC3)C(=O)C23CN(C(N)=O)C3)ccc1F", "activity at 0 min, 25 µM", "105%"),
    ("CC(C)N1CC(=O)N(Cc2ccc(Cl)c(F)c2)C2(CN(c3cccnn3)C2)C1=O", "activity at 0 min, 25 µM", "94%"),
    ("CC(C)N1CC(=O)N(Cc2ccc(C(F)(F)F)cc2)C2(CN(c3cccnn3)C2)C1=O", "activity at 0 min, 25 µM", "108%"),
    ("C[C@H]1CC[C@H](N2CC(=O)N(Cc3ccc(F)c(Cl)c3)C3(CN(C(N)=O)C3)C2=O)CC1", "activity at 0 min, 25 µM", "87%"),
    ("C[C@H]1CC[C@H](N2CC(=O)N(Cc3ccc(F)c(F)c3)C3(CN(C(N)=O)C3)C2=O)CC1", "activity at 0 min, 25 µM", "101%"),
    ("C[C@H]1CC[C@H](N2CC(=O)N(Cc3ccc(Cl)cc3)C3(CN(C(N)=O)C3)C2=O)CC1", "activity at 0 min, 25 µM", "103%"),
]

Where do the numbers come from? From patent US12286437B2.
